# System: A498 cells
# assay: MTT cytotoxicity, kidney cancer cells A498
# Type: cell-based, human
# experimental context: MTT, *: effective 72 hours after incubation
pIC50: −log10 of the molar value.
Parameter threshold = 6. Response is met when pIC50 meets or exceeds it, else not met.

Ask | Hello, I need to know if O=C1/C(=C\c2c[nH]c3ccccc23)c2cc(OC(F)(F)F)ccc2N1Cc1ccc(Cl)cc1 has measured pIC50 not below 6. Thanks!
Reply | not met

Ask | Try Cc1cccc(CN2C(=O)/C(=C\c3c[nH]c4ccccc34)c3ccccc32)c1 [50C] next.
Reply | not met

Ask | Query Cc1ccc(CN2C(=O)/C(=C\c3c[nH]c4ccccc34)c3cccc(F)c32)cc1 [35C] next
Reply | not met

Ask | // same read-out, input: O=C1/C(=C\c2c[nH]c3ccccc23)c2cc(OC(F)(F)F)ccc2N1Cc1ccc(F)cc1
Reply | not met

Ask | Queued: Cc1ccc(CN2C(=O)/C(=C\c3c[nH]c4ccccc34)c3cccc(Cl)c32)cc1 [28C]
Reply | met

Ask | O=C1/C(=C\c2c[nH]c3ccccc23)c2cc(F)ccc2N1Cc1ccc(Cl)cc1 [12C] , same question.
Reply | met
